- Test system: HEL
- MEASUREMENT DESCRIPTION: Growth inhibition of HEL cells at 5 umol/L after 48 hrs by MTT assay relative to control
- Type: functional
- TEST SETTINGS: Homo sapiens, read-out: GI
PARAMETER: inhibition of growth at 5 µM

Reference set, count: 3
[[record]]
compound = "CCOc1cc(/C=C/C(=O)c2cc(CC=C(C)C)c(OC)c(CC=C(C)C)c2O)ccc1OCOC"
parameter = "inhibition of growth at 5 µM"
experimental_result = "6.3%"

[[record]]
compound = "COc1c(CC=C(C)C)cc(C(=O)/C=C/c2cccnc2)c(O)c1CC=C(C)C"
parameter = "inhibition of growth at 5 µM"
experimental_result = "91.7%"

[[record]]
compound = "COc1ccc(/C=C/C(=O)c2cc(CC=C(C)C)c(OC)c(CC=C(C)C)c2O)cc1Cl"
parameter = "inhibition of growth at 5 µM"
experimental_result = "11.7%"


Q. Any idea what its inhibition of growth at 5 µM is? The compound is COc1cccc2c1C(=O)c1c(O)c3c(c(O)c1C2=O)C[C@@](O)(C(=O)CO)C[C@@H]3O[C@H]1C[C@H](N)[C@H](O)[C@H](C)O1 [DOXORUBICIN]
A. 89.2%

Q. Any idea what its inhibition of growth at 5 µM is? The compound is CCOc1cc(/C=C/C(=O)c2cc(CC=C(C)C)c(OC)c(CC=C(C)C)c2O)ccc1OC(=O)c1cccs1
A. 4%

Q. Any idea what its inhibition of growth at 5 µM is? The compound is COc1ccc(/C=C/C(=O)c2cc(CC=C(C)C)c(OC)c(CC=C(C)C)c2O)cc1
A. 29.5%

Q. Any idea what its inhibition of growth at 5 µM is? The compound is COc1cc(/C=C/C(=O)c2cc(CC=C(C)C)c(OC)c(CC=C(C)C)c2O)ccc1O
A. 22.2%

Q. Any idea what its inhibition of growth at 5 µM is? The compound is COc1cc(/C=C/C(=O)c2cc(CC=C(C)C)c(OC)c(CC=C(C)C)c2O)cc(OC)c1OC
A. 23.6%
